// reported growth per item
System: BT-549 breast
Experiment: NCI-60 one-dose screen, 48 h (100 = growth as untreated, 0 = no growth, -100 = all killed)
Details: 10 µM unless noted
The panel holds about 83,000 compounds, 20% with a hit somewhere; the sample as a whole holds those more often.
Answer format: numeric, % implied, no suffix.

Solved entries (count: 3):
>>> value_reported("Cc1ccc(N2CCN(CCC#N)CC2)cc1")
79
>>> value_reported("C[Se]/C=C1/C(=O)N(c2c(Cl)cccc2Cl)c2ccccc21")
-35.6
>>> value_reported("C=C1C(=O)OC2CC3(C)OC3C3OC3C3=CC(OC3=O)C12 (stereo unspecified)")
98.2

Fill blank: measured growth of the compound O=S(OO)c1cc(Cl)c(O)c(Cl)c1 (stereo unspecified) is ____.
89.1

Fill blank: measured growth of the compound CC[C@H](C)[C@H](NC(=O)[C@H]1CCCCN1C)C(=O)N(C)[C@H](C[C@@H](OC(C)=O)c1nc(C(=O)NC23C4C5C2C2C3C4C52C(=O)OC)cs1)C(C)C (stereo partly specified) is ____.
-36

Fill blank: measured growth of the compound `COC(=O)CCP(CCC(=O)OC)c1ccccc1` is ____.
90

Fill blank: measured growth of the compound O=C1CCCCC1CN1CCCCC1 (stereo unspecified) is ____.
117
